Data provenance: paper PMC11157103

Let's look at some compounds and their measured melting point.
result-type: melting point

> print(dat)
                                   compound    assay.value
1  CC(=NNC(=S)NCCN1CCOCC1)c1ccc(Br)s1 [Compound 5h]  148 to 150 °C
2  CC(=NNC(=S)NCCN1CCOCC1)c1ccc(Cl)s1 [Compound 5g]  148 to 150 °C
3  CC(=NNC(=S)NCCN1CCOCC1)c1ccc([N+](=O)[O-])s1 [Compound 5i]  192 to 194 °C

====

Let's look at some compounds and their measured melting point.
result-type: melting point

> print(dat)
                     compound.string    assay.value
1   CC(=NNC(=S)NCCN1CCOCC1)c1sccc1Br  124 to 126 °C
2  CC(=NNC(=S)NCCN1CCOCC1)c1ccc(C)s1  156 to 158 °C
3   CC(=NNC(=S)NCCN1CCOCC1)c1sccc1Cl  116 to 118 °C
4  CC(=NNC(=S)NCCN1CCOCC1)c1cc(C)cs1  112 to 114 °C
5     CC(=NNC(=S)NCCN1CCOCC1)c1cccs1  142 to 144 °C

====

Let's look at some compounds and their measured pIC50.
Target: jack bean urease (Canavalia ensiformis, UniProt P07374)
Sequence (P07374 whole entry, looked up): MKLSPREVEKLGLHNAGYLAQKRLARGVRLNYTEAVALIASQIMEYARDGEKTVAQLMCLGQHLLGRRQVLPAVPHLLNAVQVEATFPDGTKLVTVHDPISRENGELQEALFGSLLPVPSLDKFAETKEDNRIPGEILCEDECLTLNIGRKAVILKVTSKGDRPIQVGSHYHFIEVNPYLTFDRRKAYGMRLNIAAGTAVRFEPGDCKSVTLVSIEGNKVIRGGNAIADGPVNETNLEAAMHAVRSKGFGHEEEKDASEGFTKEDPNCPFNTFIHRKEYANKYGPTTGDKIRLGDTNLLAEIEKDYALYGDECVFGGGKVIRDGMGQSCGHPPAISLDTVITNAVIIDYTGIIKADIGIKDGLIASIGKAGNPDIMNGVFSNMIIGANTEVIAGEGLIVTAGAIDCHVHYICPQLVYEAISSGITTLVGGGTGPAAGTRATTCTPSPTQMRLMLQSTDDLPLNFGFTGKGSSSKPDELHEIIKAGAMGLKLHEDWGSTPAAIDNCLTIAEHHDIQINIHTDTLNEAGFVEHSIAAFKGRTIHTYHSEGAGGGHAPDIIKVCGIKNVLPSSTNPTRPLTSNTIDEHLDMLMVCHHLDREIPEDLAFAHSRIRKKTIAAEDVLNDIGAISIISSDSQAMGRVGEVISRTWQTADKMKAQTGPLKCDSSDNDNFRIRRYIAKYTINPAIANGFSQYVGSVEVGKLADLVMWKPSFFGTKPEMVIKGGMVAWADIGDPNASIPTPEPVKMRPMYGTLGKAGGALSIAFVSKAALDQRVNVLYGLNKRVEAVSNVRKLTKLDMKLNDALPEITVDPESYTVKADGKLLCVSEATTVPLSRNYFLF
Test: biochemical
Type: biochemical
pIC50: −log10 of the molar value.
result-type: pIC50

> print(dat)
                                   compound  result.type  assay.value
1  CC(=NNC(=S)NCCN1CCOCC1)c1ccc([N+](=O)[O-])s1 [Compound 5i]        pIC50         5.41
2  CC(=NNC(=S)NCCN1CCOCC1)c1cc(C)cs1 [Compound 5c]        pIC50         5.40
3  CC(=NNC(=S)NCCN1CCOCC1)c1sccc1Cl [Compound 5e]        pIC50         5.32
4  S=C(NCCN1CCOCC1)NN=Cc1cccs1 [Compound 5a]        pIC50         5.31
5  CC(=NNC(=S)NCCN1CCOCC1)c1ccc(Br)s1 [Compound 5h]        pIC50         5.40
6  CC(=NNC(=S)NCCN1CCOCC1)c1ccc(Cl)s1 [Compound 5g]        pIC50         5.42
7  CC(=NNC(=S)NCCN1CCOCC1)c1ccc(C)s1 [Compound 5d]        pIC50         5.34
8  CC(=NNC(=S)NCCN1CCOCC1)c1sccc1Br [Compound 5f]        pIC50         5.24
9  CC(=NNC(=S)NCCN1CCOCC1)c1cccs1 [Compound 5b]        pIC50         5.30

====

Target: UniProt P07374
Assay: biochemical
Type: biochemical
Settings: jack bean urease, indophenol method, triplicate; read-out: Urease inhibition IC50 ± SEM
pIC50: −log10 of the molar value.
result-type: pIC50

> print(dat)
                                 compound  assay.value
1  NC(N)=S [Thiourea, reference compound]         4.65
